// data source = paper PMC12040169

Assay: in vitro
Conditions: human, hela cells, % viability
Give viability at 28.5 h, 10 µM for every item shown.
Give the quantity in %, number only.

Looking up `Cc1nn(CC(=O)OC(C)C)c(=O)c2cc3sccc3n12` , I found its viability at 28.5 h, 10 µM recorded as 93.7

Please fill in: viability at 28.5 h, 10 µM reported for `O=c1[nH]nc2c3c(nc(-c4ccncc4)n12)CCCC3` = 109

The recorded viability at 28.5 h, 10 µM for entry `Cc1onc(-c2ccccc2)c1C(=O)n1cccn1` equals 97.5

// recorded viability at 28.5 h, 10 µM for `Cc1nn(CC(C)C)c(Cl)c1C(=O)Nc1nc2ccc(F)cc2s1` : 90.4

Lab book: viability at 28.5 h, 10 µM of `Cc1ccc(CC(=O)N2CCc3nn(C(C)C)c(=O)cc3C2)cc1` noted as 93.6

Just so you know, measured viability at 28.5 h, 10 µM for `O=S(=O)(c1ccc(-c2ccccc2)cc1)N1CCCN(CCCO)CC1` came out at 102

The reported value for O=C1NC(=O)C2(CCN(C(=O)c3csc4c3CCCC4)C2)N1 (centres unmarked) in terms of viability at 28.5 h, 10 µM is 89.8

Notebook: `COCCN(CCOC)Cc1c(O)ccc2c3c(c(=O)oc12)CCC3` , viability at 28.5 h, 10 µM read as 75.4

Just so you know, measured viability at 28.5 h, 10 µM for `Cn1nc(C2CCCC2)cc1[C@H]1CN2CC[C@H]1C[C@@H]2CNS(=O)(=O)c1ccccc1` came out at 96.3

Recorded result, `Cc1n[nH]c(C)c1CNC(=O)CCc1ccc(Cl)cc1` , viability at 28.5 h, 10 µM: 95

Record COc1ccc(OC)c(NC(=O)CC2NCCNC2=O)c1 (centres unmarked) , field viability at 28.5 h, 10 µM: 95.9

Looking up O=S(=O)(NC1c2cccc3cccc(c23)C1Sc1ncccn1)c1ccc(Cl)cc1 (centres unmarked) , I found its viability at 28.5 h, 10 µM recorded as 94.3

The compound identified as CC(C)C1c2cccn2CCN1C(=O)c1cc(-c2ccccn2)n[nH]1 (centres unmarked) registered its viability at 28.5 h, 10 µM at 81.9

Documented viability at 28.5 h, 10 µM of `CSc1nc2ccc(Nc3cc(C)nc4ncnn34)cc2s1` : 105

GET /value?item= `CN(C)CCNC(=O)c1ccc(COc2ccc(Cl)cc2Cl)cc1` &field=viability at 28.5 h, 10 µM returns 90.9

Note to self: viability at 28.5 h, 10 µM recorded for `O=C(O)CCc1ccc(-c2ccc(Br)cc2)n1-c1ccccc1O` was 93.9

Reported viability at 28.5 h, 10 µM ( `CCOC(=O)Cc1cc(O)nc(NC(=N)Nc2ccc(C)cc2C)n1` ) = 104

Reported viability at 28.5 h, 10 µM of `Cc1nc2ccc(C(=O)N3CCN(C4CCCCC4)C(=O)C3)cc2[nH]1` : 86.5

Lab book: viability at 28.5 h, 10 µM of `O=C(c1ccc(F)cc1)c1cn(CCO)c2c(Cl)nccc12` noted as 106

The value of viability at 28.5 h, 10 µM measured for the compound `CS(=O)(=O)Nc1cccc(-c2cnc3[nH]c(=O)n(Cc4cccs4)c3n2)c1` turned out to be 91

The compound identified as `CC1=C[C@@H](CNC(=O)c2ccncc2)[C@H](C(C)C)C[C@H]1CC(=O)N1CCOCC1` registered its viability at 28.5 h, 10 µM at 80.2

Reported viability at 28.5 h, 10 µM ( `O=[N+]([O-])c1ccc(O)c(/C=N/c2ccc3cc4ccc(/N=C/c5cc([N+](=O)[O-])ccc5O)cc4nc3c2)c1` ) = 57.4

For record CN(C(=O)C12CCOCC1CN(c1nccnc1C#N)C2)C1CCCC1 (centres unmarked) the listed viability at 28.5 h, 10 µM is 93.6

`CC(C)c1ccc(CN2CCN(c3nccnc3NS(C)(=O)=O)CC2)cc1` has a reported viability at 28.5 h, 10 µM of 91

Entry `COc1ccc(C(=O)Nc2c(C)noc2C)c(OC)n1` — recorded viability at 28.5 h, 10 µM = 104

The recorded viability at 28.5 h, 10 µM for entry `OC1(Cn2ccc3ncccc32)CCN(Cc2cccs2)CC1` equals 88.3

Data point: COc1ccc(C)cc1S(=O)(=O)n1ccc2c(OC3CCCN(C)C3)nccc21 (centres unmarked) [CBK051582C] ; viability at 28.5 h, 10 µM = 85.3

Short answer for `COC(=O)c1sccc1NC(=O)c1ccncc1` : viability at 28.5 h, 10 µM was 85.4

The reported value for `CCOC(=O)c1nnc(-c2cccs2)nc1NC1CCCCC1` in terms of viability at 28.5 h, 10 µM is 86.8

Value of measured viability at 28.5 h, 10 µM for the entry `Nc1ccc(-c2nnn(CC(=O)NC3CCCCC3)n2)cc1` : 86.7

Entry O=C(Nc1ncc(Cl)s1)C1CC(=O)N(C2CC2)C1 (centres unmarked) — recorded viability at 28.5 h, 10 µM = 102

So, `O=C(Nc1ccc(Oc2ccccc2)cc1)c1cnc2n(c1=O)CCS2` ? Its viability at 28.5 h, 10 µM was 95.1

Entry `O=C(c1cccc(F)c1)N1CCC(c2n[nH]c3ncccc23)CC1` — recorded viability at 28.5 h, 10 µM = 109

viability at 28.5 h, 10 µM for `O=[N+]([O-])c1ccccc1/C=C/CN1CCN(C/C=C/c2ccccc2)CC1` is 93

According to the records, this compound `O=C1CN(C(=O)Cn2c(-c3cccs3)cc3cccnc32)CCN1` displays viability at 28.5 h, 10 µM of 100

Given item `COc1ccc(-n2ccn(C(=O)CCC3CCCC3)c2=O)cc1` , the value recorded as its viability at 28.5 h, 10 µM is 90.4

In plain terms, `Cn1c(=O)c2c(nc(CN3CCN(c4ccccc4)CC3)n2Cc2ccccc2)n(C)c1=O` has a documented viability at 28.5 h, 10 µM of 85.1

Consider `Cc1nc(COc2ccccc2)nc(O)c1Cl` . Its measured viability at 28.5 h, 10 µM is 95.2

---

So I've got a bunch of compounds here, and I need their viability at 28.5 h, 10 µM values.
Test: in vitro
Settings: human, hela cells, % viability
The reply should be a number in %, with the unit left off.

`O=C(Cn1cccc(C(=O)NC2CCCCC2)c1=O)NC1(c2ccccc2)CCCC1` has a reported viability at 28.5 h, 10 µM of 85.1

Entry `Cc1ccc(CN(CC(=O)N2CCC(C(N)=O)CC2)S(=O)(=O)c2ccc(Br)cc2)cc1` , viability at 28.5 h, 10 µM reported as 102

Reported viability at 28.5 h, 10 µM for `O=C(NCCN1CCOCC1)c1cccc(S(=O)(=O)N2CCCC2)c1` was 98.2

viability at 28.5 h, 10 µM in this record for `Cc1nc(-c2ccccc2)cc([C@H]2CN3CC[C@H]2C[C@@H]3CNS(C)(=O)=O)n1` : 114

---

Assay: in vitro
Settings: human, hela cells, % viability
observedProperty: viability at 28.5 h, 10 µM (%)
Give the quantity in %, number only.

Notebook: Cn1ccnc1CCC1CCCCN1C(=O)NCc1cccc(F)c1 (stereo not drawn) , viability at 28.5 h, 10 µM read as 93.5

Quick note, viability at 28.5 h, 10 µM for `Cc1cc(C)c(S(=O)(=O)NC(C)C)c(C)c1-n1cnnn1` landed at 96.5

Consider `COC(=O)c1sccc1NS(=O)(=O)c1ccc(C(F)(F)F)cc1[N+](=O)[O-]` . Its measured viability at 28.5 h, 10 µM is 92.9

So, `c1coc(CNc2ncc(-c3ccc4c(c3)OCO4)c(-c3cccs3)n2)c1` ? Its viability at 28.5 h, 10 µM was 93.9

For reference, reported viability at 28.5 h, 10 µM for CN1CCC(N(C)C(=O)Nc2cccnc2)C1 (stereo not drawn) stands at 93.8

Reported viability at 28.5 h, 10 µM of `O=C(Nn1cnnc1)c1ccccc1F` : 106

Lab book: viability at 28.5 h, 10 µM of COc1ccc(CCCC(=O)Nc2cc3ccccc3c(N3CCNCC3)n2)cc1OC [CBK028417T] noted as 90.3

Per the record, `O=C(CO)N1CC2(CCN(Cc3ccc(OC(F)(F)F)cc3)CC2)c2ccccc21` has viability at 28.5 h, 10 µM of 106

Measured viability at 28.5 h, 10 µM of `Cn1nc(-c2ccc(Cl)cc2)cc1NC(=O)Cn1nnc(-c2ccc(F)cc2)n1` : 82.7

---

Give viability at 28.5 h, 10 µM for every item shown.
Assay: in vitro
Details: human, hela cells, % viability
Field format: number, assumed %, no unit text.

compound COc1ccc2[nH]c3c(c2c1)CCN(CC(C)O)C31CCN(CCOc2ccccc2)C1 (centres unmarked) [CBK084612T] , viability at 28.5 h, 10 µM observed: 73

The recorded viability at 28.5 h, 10 µM for CCOC(=O)CCCCSc1c(CC)c(C)nc2ccccc12 [CBK153458T] is 96

# compound CCn1cc(S(=O)(=O)N2CCN(c3cccc(C(F)(F)F)c3)CC2)cn1 [CBK270328] ; its viability at 28.5 h, 10 µM = 93.6

The recorded viability at 28.5 h, 10 µM for entry Cc1nc(C)n(CCCNc2cc(C(C)C)nc3ccnn23)n1 [CBK307497] equals 79.7

The recorded viability at 28.5 h, 10 µM for CCNC(=O)N[C@H]1CO[C@H]2[C@@H]1OC[C@@H]2Nc1nccc(-c2cccc(F)c2)n1 [CBK289536] is 91.1

Just so you know, measured viability at 28.5 h, 10 µM for CSCCC(C(=O)O)N1CNC(=S)NC1 (centres unmarked) [CBK011382] came out at 92.3

Short answer for CCc1nc(C(C)NCC(=O)Nc2cc(C)nn2C)cs1 (centres unmarked) [CBK305118] : viability at 28.5 h, 10 µM was 97.8

So, CC(C)CC(=O)N1CCN(C(=O)c2ccc(F)cc2)CC1 [CBK003603] ? Its viability at 28.5 h, 10 µM was 91.1

The recorded viability at 28.5 h, 10 µM for entry Cn1nnc2cc(NC(=O)NCc3csc(N4CCOCC4)n3)ccc21 [CBK307492] equals 94.2

Per the records, this compound ( COc1cc(OC)c2c(c1)OCC1CON(C)C21 (centres unmarked) [CBK011446] ) has viability at 28.5 h, 10 µM equal to 95.6

For record COCCC(=O)Nc1cccc(N2CCNCC2)c1 [CBK004769T] the listed viability at 28.5 h, 10 µM is 89.9

The recorded viability at 28.5 h, 10 µM for O=C(O)CCCN1C(=O)C(O)=C(C(=O)c2ccccc2)C1c1ccccc1 (centres unmarked) [CBK262924] is 93.3

Data point: O=C(NC(c1ccc(-c2ccccc2)cc1)c1cnccn1)C1CCN(C/C=C/c2ccccc2)CC1 (centres unmarked) [CBK147984] ; viability at 28.5 h, 10 µM = 104

Noted for CCOC(=O)c1cnc(SCC(=O)N2CCN(c3ccccc3)CC2)nc1N [CBK269159] : its viability at 28.5 h, 10 µM reads 90.5

compound CS(=O)(=O)Nc1cc2ccccc2c(-c2cccc(C(F)(F)F)c2)n1 [CBK085754] , viability at 28.5 h, 10 µM observed: 92.9

Briefly, viability at 28.5 h, 10 µM measured for Cc1ccc(N)c(C(=O)CCCCC(=O)O)c1 [CBK260970] : 90.5

// viability at 28.5 h, 10 µM lookup, compound = CC(C)(CO)CCCn1cncc1-c1cnn(C2CCCCC2)c1 [CBK281779] , result: 86.7

Entry O=C(O)CCc1nnc(S)n1Cc1ccccc1 [CBK286926] , viability at 28.5 h, 10 µM reported as 93.8

For COc1ccc(/C=N/NC(=O)Cn2nnnc2N)cc1 [CBK262122] the compound record lists viability at 28.5 h, 10 µM as 84.9

Query O=C(Nc1ccncc1)c1cc2cc(OC(F)(F)F)ccc2[nH]1 [CBK107369] yields viability at 28.5 h, 10 µM of 89.3
